Assay: inhibitors of TNFa-induced NFkB p65 translocation, primary screen, imaging, HUVEC, MLSMR starter and 10KST1 sets (AID 438);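 note: compound added about 3h40 before a 20 min TNFalpha stimulation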
Conditions: HUVEC TNFa-induced p65 nuclear translocation; measured here: nuclei count (cytotoxicity indicator), at 2.08 µM
QUANTITY_MEASURED: cell count

Before answering, review these 5 worked examples.
CCOC(=O)N1CCN(c2ncnc3c2[nH]c2ccc(OC)cc23)CC1; 520
CC(=O)O[C@]1(C(C)=O)CC[C@H]2[C@@H]3C=C(C)C4=CC(=O)CC[C@]4(C)[C@H]3CC[C@@]21C; 697
CCOc1cccc(-c2nnc3sc(-c4cc(OC)c(OC)c(OC)c4)nn23)c1; 647
Cn1c(=O)c2c3c(sc2n2c(SCc4ccccc4)nnc12)CCCC3; 550
Cc1cc(C)nc(N(C#N)CC(=O)N(c2ccccc2)C(C)C)n1; 584

# return cell count for each item in the list
1. CCC[C@@H]1C[C@@H](C(=O)N[C@H]([C@@H](C)O)[C@H]2O[C@H](SC)[C@H](O)[C@@H](O)C2O)N(C)C1 (stereo not given in full)
2. CC(C)Cc1nc(N2CCOCC2)c(C#N)c2c1CCC2
3. Cc1cccc(OCc2nc(C)cc(=O)[nH]2)c1
4. CC(C)Cc1nc(N2CCCCC2)c(C#N)c2c1CCC2
5. Cc1nc2sc3c(NCc4ccco4)ncnc3c2c2c1COC(C)(C)C2
6. O=C(NC1CCCCC1)N1CCSC1=Nc1ccccc1

Key:
[619, 488, 594, 513, 595, 490]

Count: 3. Required value per item: cell count.
1. Cc1cc(OCC(=O)Nc2ccc3oc(-c4ccncc4)nc3c2)ccc1Cl
2. Oc1ccc(C=Nc2ccc3ncccc3c2)c(O)c1
3. Cc1nccn1-c1cc(C(C)C)c(C#N)c2nc3ccccc3n12

Key:
1. 485
2. 490
3. 468

Quick batch: cell count for everything below.
1. COc1cccc2c1C(=O)c1c(O)c3c(c(O)c1C2=O)C[C@@](O)(C(=O)CO)C[C@@H]3O[C@H]1C[C@H](N)[C@H](O)[C@H](C)O1
2. CC(C)(C)NCC(O)COc1cccc2c1C[C@H](O)[C@H](O)C2 (stereo not given in full)
3. CCCCc1c(C)c2ccc(OCC(C)=O)cc2oc1=O
4. CCCc1nc(NC2CCCCC2)c(C#N)c2c1COC(C)(C)C2
5. CSc1nc2sc3c(c2c(=O)[nH]1)CCC(C)C3 (stereo not given)

Key:
564
666
647
517
503

Below is a list of molecules. For each, state its recorded cell count.
1. COC(=O)c1ccc(C2NC(C(=O)O)CS2)cc1 (stereo not given)
2. CCN(CC)C(=O)CSC1=C(C#N)C(c2cccs2)C=C(C)N1 (stereo not given)
3. Cc1nc2sc(C#N)c(N)c2c2c1CCCC2
4. Cc1nn(-c2ccccc2)c2c1C(c1ccc(F)cc1F)C(C#N)=C(N)O2 (stereo not given)
5. CCCCOc1cccc(-c2nnc(N)s2)c1

Key:
652
685
603
611
629

Batch: cell count for all items listed.
1. CCN(CC)CCN1C(=O)C(=O)/C(=C(/O)c2ccc(F)cc2)C1c1ccncc1 (stereo not given)
2. CCN(CC)CCNC(=O)c1cc(S(C)(=O)=O)ccc1OC
3. Cc1ccc(/C=N/n2nnnc2N)o1
4. CCCOC(=O)C1[C@H]2C(=O)N(Cc3ccco3)C[C@]23C=C[C@H]1O3 (stereo not given in full)
5. Cc1cccn2c(=O)c3cc(C#N)c(=N)n(Cc4ccncc4)c3nc12
6. CCC1(C)Cc2c(sc3[nH]c(=O)[nH]c(=O)c23)CS1 (stereo not given)
7. COC(=O)c1sccc1NC(=O)c1c(C)cc(=O)oc1C

Key:
[519, 676, 674, 337, 604, 666, 553]

I need cell count for every entry listed below, if you could help.
1. Cc1ccc(-n2c(N)c(C(N)=O)sc2=S)cc1
2. O=C(NCC(F)(F)F)N1CCOCC1
3. CCOP(=O)(c1ccccc1)C1(C#N)CCCC1 (stereo not given)

Key:
1. 560
2. 663
3. 492

Look up cell count for the entries below, preserving their order.
1. Cc1cccc(N(Cc2cc3ccccc3[nH]c2=O)C(=O)c2ccco2)c1C
2. O=C(Nc1ncn[nH]1)c1c(Cl)ccc(Cl)c1Cl
3. O=c1c2ccccc2[nH]c(=S)n1CCN1CCC(=C(c2ccc(F)cc2)c2ccc(F)cc2)CC1
4. Cc1c(NC(=O)C(CC(=O)O)NCc2ccco2)c(=O)n(-c2ccccc2)n1C (stereo not given)
5. COc1cc2[nH]c3c(=O)n(CCN(C(C)C)C(C)C)cnc3c2cc1OC
6. O=C(NCc1ccccc1)c1ccc(=O)[nH]n1
7. CCCc1[nH]nc2c1C(c1c(C)nn(-c3ccccc3)c1Cl)C(C#N)=C(N)O2 (stereo not given)

Key:
1: 391; 2: 597; 3: 603; 4: 357; 5: 531; 6: 328; 7: 673

Could I get cell count for every one of these entries?
1. COc1cccc(-c2nc(N3CCC(C)CC3)c3ccccc3n2)c1O
2. CCCCOc1ccc(C)cc1CN(CCO)CCO
3. CCN1CCN(c2cc3c(cc2F)c(=O)c(C(=O)O)cn3C2CC2)CC1
4. Cn1c(=O)c2c(nc(OCc3cccnc3)n2Cc2ccccc2)n(C)c1=O

Key:
573
552
605
599
